- Test system: HOP-62 NSCLC
- PROCEDURE_SUMMARY: NCI-60 one-dose screen, 48 h (100 = growth as untreated, 0 = no growth, -100 = all killed)
- STATED_CONDITIONS: 10 µM
The panel holds about 83,000 compounds, 20% with a hit somewhere; the sample as a whole holds those more often.
ENDPOINT_LABEL: growth (%)
The reply should be a number in %, with the unit left off.

Known results for compounds:
QUERY: Report growth for CCOc1ccc2ncc(C#Cc3cncc(C(=O)Nc4ccc(CN5CCN(C)CC5)c(C(F)(F)F)c4)c3)n2n1
RESULT: -46.8

QUERY: Report growth for CN1CCN(c2ccc(Nc3nc(NCCCNC(=O)c4ccccc4)c4sccc4n3)cc2)CC1
RESULT: 93.5

QUERY: Report growth for CN1CCN(Cc2ccc(NC(=O)c3cncc(C#Cc4cnc5ccc(N[C@H]6CCOC6)nn45)c3)cc2C(F)(F)F)CC1
RESULT: -80

QUERY: Report growth for COc1ccc2[nH]c(O)c(N=NC(=O)COc3ccc(NC(=O)Nc4ccc(Cl)c(Cl)c4)cc3)c2c1
RESULT: -36

QUERY: Report growth for CN1C/C(=C\c2ccc(O)cc2O)c2[o+]c3cc(O)ccc3cc2C1
RESULT: 77.8

Consider now this further compound.
QUERY: Report growth for C=C[C@@]12CN3CC[C@]1(O)[C@@](C(=O)OC)(CO2)c1[nH]c2ccccc2c1C3
RESULT: 99.5

----------
- System: MOLT-4 leukemia
- PROCEDURE_SUMMARY: NCI-60 one-dose screen, 48 h
- STATED_CONDITIONS: 10 µM
This is part of a sample that, as a whole, favours compounds with a hit. Of some 83,000 tested, about 20% had one in any assay. Activity calls are given as the source filed them. Rule for the calls: active = growth percent below 10; inactive = the rest.
Pick from active, inactive when you respond.

QUERY: Hey, what did the test say about O=C(NO)c1ccc(CNc2nc(-c3ccccc3)c3ccccc3n2)cc1 ?
RESULT: inactive

QUERY: Hey, what did the test say about O=c1nc(-c2ccccc2)cc(-c2cc3ccccc3nc2Cl)[nH]1 ?
RESULT: active

QUERY: Hey, what did the test say about COc1ccc(CN2[C@H](C(=O)NCc3ccc(C(=O)NO)cc3)Cc3c([nH]c4ccccc34)[C@H]2C2CC2)cc1 ?
RESULT: inactive

---
QUERY: Hey, what did the test say about Nc1nnc(-c2c[nH]c3ncccc23)c(-c2c[nH]c3ccc(Br)cc23)n1 ?
RESULT: inactive

QUERY: Hey, what did the test say about CN1C(=O)N(C)C2SC(N/N=C/c3ccccc3)=NC21 (stereo unspecified) ?
RESULT: inactive

QUERY: Hey, what did the test say about COc1cccc(-c2ccc(/C=N/NC(=O)c3[nH]c4ccc(Br)cc4c3-c3ccccc3)o2)c1 ?
RESULT: active

QUERY: Hey, what did the test say about O=C(Nc1nc2ccc([N+](=O)[O-])cc2s1)Nc1ccccc1I ?
RESULT: active

QUERY: Hey, what did the test say about Cc1ccn2c(C(=O)c3ccccc3)cc(-c3cc(-c4ccc(N(C)C)cc4)c(C#N)c(N)n3)c2c1 ?
RESULT: inactive

QUERY: Hey, what did the test say about CN1C(=O)N(C)C2SC(N/N=C/c3ccccc3F)=NC21 (stereo unspecified) ?
RESULT: inactive

QUERY: Hey, what did the test say about COc1cc2c(cc1OC)CN(CCCCOc1cc(O)c3c(=O)cc(-c4ccccc4)oc3c1)CC2 ?
RESULT: inactive

QUERY: Hey, what did the test say about Nc1nc(-c2ccccc2)cc(-c2cc3ccccc3nc2Cl)n1 ?
RESULT: inactive

QUERY: Hey, what did the test say about O=c1oc2ccc(-c3ccc(F)cc3F)cc2c(=O)n1-c1ccc(Cl)c(C(F)(F)F)c1 ?
RESULT: active
